Provenance of the data: ChEMBL document CHEMBL1275567

# Tested on: Staphylococcus aureus
# experimental.details: Antimicrobial activity against linezolid-resistant Staphylococcus aureus 480 harboring G2447U in peptidyl transferase centre by broth microdilution method
# Format: functional
assay.metric: MIC

State MIC on Staphylococcus aureus. Entry: Cc1onc(-c2ccccc2)c1C(=O)N[C@@H]1C(=O)N2[C@@H]1SC(C)(C)[C@@H]2C(=O)O [OXACILLIN]
< 0.03 µg/mL

Quote Staphylococcus aureus MIC for entry CC1(C)S[C@@H]2[C@H](NC(=O)Cc3ccccc3)C(=O)N2[C@H]1C(=O)O [PENICILLIN G] .
0.25 µg/mL

Report value only: MIC, Staphylococcus aureus, CC(=O)NC[C@H]1CN(c2ccc(N3CCOCC3)c(F)c2)C(=O)O1 [LINEZOLID]
> 32 µg/mL

Report value: MIC, system: Staphylococcus aureus, compound: Cn1nnc(-c2ccc(-c3ccc(N4C[C@H](CO)OC4=O)cc3F)cn2)n1 [TEDIZOLID]
16 µg/mL

---

# System: Enterococcus faecium
# experimental.details: Antimicrobial activity against linezolid-resistant Enterococcus faecium 854 harboring G2576U mutation in peptidyl transferase centre by broth microdilution method
# Type: functional
assay.metric: MIC

For the compound CN[C@H](CC(C)C)C(=O)N[C@H]1C(=O)N[C@@H](CC(N)=O)C(=O)N[C@H]2C(=O)N[C@H]3C(=O)N[C@H](C(=O)N[C@H](C(=O)O)c4cc(O)cc(O)c4-c4cc3ccc4O)[C@H](O)c3ccc(c(Cl)c3)Oc3cc2cc(c3O[C@@H]2O[C@H](CO)[C@@H](O)[C@H](O)[C@H]2O[C@H]2C[C@](C)(N)[C@H](O)[C@H](C)O2)Oc2ccc(cc2Cl)[C@H]1O , give its measured MIC value.
> 32 µg/mL

// fetch MIC given entry Cn1nnc(-c2ccc(-c3ccc(N4C[C@H](CO)OC4=O)cc3F)cn2)n1
2 µg/mL

Answer with the recorded MIC of Cc1onc(-c2ccccc2)c1C(=O)N[C@@H]1C(=O)N2[C@@H]1SC(C)(C)[C@@H]2C(=O)O only.
> 32 µg/mL

Query MIC for CC(=O)NC[C@H]1CN(c2ccc(N3CCOCC3)c(F)c2)C(=O)O1
16 µg/mL
